experimental_setup: bacteroides eggerthii, 12 h, 2 µM;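 also: compound levels quantified by LC–MS at the start and end of incubation with the bacterium, indicating biotransformation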
Description: The drug is tested on Bacteroides eggerthii strain: DSM20697 for biotransformation. The drug concentrations were measured before and after a 12-h incubation by liquid-chromatography-coupled mass spectrometry (LC–MS)
assay_metric: Bacterial Biotransformation

Solved cases below.
molecule	Bacterial Biotransformation
CC(CN1c2ccccc2Sc2ccccc21)N(C)C (centres undefined)	Compound NOT metabolized
CNCC[C@H](Oc1cccc2ccccc12)c1cccs1	Compound NOT metabolized
CN1CCC(=C2c3ccccc3CC(=O)c3sccc32)CC1.O=C(O)/C=C/C(=O)O [KETOTIFEN FUMARATE]	Compound NOT metabolized
CC(C)c1nc(CN(C)C(=O)N[C@H](C(=O)N[C@@H](Cc2ccccc2)C[C@H](O)[C@H](Cc2ccccc2)NC(=O)OCc2cncs2)C(C)C)cs1	Compound metabolized
CC(C)(C)NCC(O)c1cc(Cl)c(N)c(Cl)c1 (centres undefined)	Compound NOT metabolized
CCN(CC)CCNC(C(=O)OCCC(C)C)c1ccccc1.Cl.Cl (centres undefined)	Compound NOT metabolized
CC(=O)OCC(=O)[C@@]12N=C(C)O[C@@H]1C[C@H]1[C@@H]3CCC4=CC(=O)C=C[C@]4(C)[C@H]3[C@@H](O)C[C@@]12C	Compound metabolized
Cc1ccc(S(=O)(=O)NC(=O)NN2CCCCCC2)cc1 [TOLAZAMIDE]	Compound metabolized
COc1cc(NC(C)CCCN)c2ncccc2c1.O=P(O)(O)O.O=P(O)(O)O (centres undefined) [PRIMAQUINE PHOSPHATE]	Compound NOT metabolized
CCCC(=O)Nc1ccc(OCC(O)CNC(C)C)c(C(C)=O)c1 (centres undefined)	Compound NOT metabolized

Could you tell me Bacterial Biotransformation for each of these molecules? They are listed below.
1. CCCN(CCC)CCc1cccc2c1CC(=O)N2
2. CC(NC(C)(C)C)C(=O)c1cccc(Cl)c1 (centres undefined)
3. CCN(CC)C(=O)/C(C#N)=C/c1cc(O)c(O)c([N+](=O)[O-])c1
4. CNC(=C[N+](=O)[O-])NCCSCc1ccc(CN(C)C)o1
5. CSc1ccc2c(c1)C(N1CCN(C)CC1)Cc1ccccc1S2.O=C(O)/C=C\C(=O)O (centres undefined)
6. CN1CCN(C2=Nc3cc(Cl)ccc3Nc3ccccc32)CC1
7. COc1ccc2cc([C@H](C)C(=O)O)ccc2c1

Result:
Compound NOT metabolized
Compound metabolized
Compound metabolized
Compound NOT metabolized
Compound NOT metabolized
Compound NOT metabolized
Compound NOT metabolized

Could I get Bacterial Biotransformation for every one of these entries?
1. COc1ccccc1N1CCN(CC(O)COc2cccc3ccccc23)CC1 (centres undefined)
2. CCC1(c2ccc(N)cc2)CCC(=O)NC1=O (centres undefined) [AMINOGLUTETHIMIDE]

Result:
["Compound NOT metabolized", "Compound NOT metabolized"]
